test description: Half life in overnight fasted cynomolgus monkey at 3 mg/kg, po by HPLC/MS/MS analysis
Assay type: ADME, organism-based, Macaca fascicularis
Parameters: dose 3 mg/kg, route oral
details: in vivo

smiles record	measurement units	half-life
O=C(Nc1ccc(Oc2ccc(F)cc2)cc1)[C@@H]1C[C@@H](Cc2ccc(F)cc2)CN1C(=O)Cn1ccnn1	h	6.4

====

test description: Drug uptake in nu/nu homozygous mouse plasma at 100 mg/kg, po as a solution of 10% EtOH/40% PEG400/20% Captisol/water + 1:1 HCl after 1 hr by HPLC/MS/MS analysis
Format: ADME, organism-based
Parameters: dose 100 mg/kg, route oral

smiles record	measurement units	concentration at 1 h
O=C(Cc1c[nH]cn1)N[C@@H](COCc1ccccc1)c1nc2cc(Oc3ccc(F)cc3)ccc2[nH]1	µM	18.7

====

test description: Oral bioavailability in overnight fasted beagle dog at 3 mg/kg by HPLC/MS/MS analysis
Type: ADME, organism-based, Canis lupus familiaris
details: in vivo

smiles record	bioavailability
O=C(Nc1ccc(Oc2ccc(F)cc2)cc1)[C@@H]1C[C@@H](Cc2ccc(F)cc2)CN1C(=O)Cn1ccnn1	99.9%

====

tested system: Sphingosine 1-phosphate receptor 1 (Homo sapiens)
Sequence (P21453 whole entry): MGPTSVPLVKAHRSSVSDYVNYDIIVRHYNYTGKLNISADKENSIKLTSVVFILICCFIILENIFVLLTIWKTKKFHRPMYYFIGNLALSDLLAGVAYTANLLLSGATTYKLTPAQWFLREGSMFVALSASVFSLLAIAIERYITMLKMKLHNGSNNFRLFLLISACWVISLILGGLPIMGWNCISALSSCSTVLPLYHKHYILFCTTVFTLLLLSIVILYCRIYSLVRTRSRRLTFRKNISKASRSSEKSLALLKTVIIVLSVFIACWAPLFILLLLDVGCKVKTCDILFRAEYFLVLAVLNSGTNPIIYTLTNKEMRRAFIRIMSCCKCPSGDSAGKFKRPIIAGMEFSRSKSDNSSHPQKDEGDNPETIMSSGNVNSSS
test description: Antagonist activity at S1P1 receptor expressed in HEK293 cells assessed as inhibition of S1P-induced tango beta-arrestin recruitment preincubated for 30 mins prior S1P addition measured after 16 to 18 hrs by luciferase reporter gene assay
Format: functional, cell-based
Parameter: IC50. Scope: all listed entries.
measurement kind: IC50 (µM)

smiles record	measurement units	experimental value
O=C(Cc1cnc[nH]1)N[C@@H](COCc1ccccc1)C(=O)Nc1ccc(Oc2ccc(Cl)cc2)cc1	µM	0.221
O=C(Nc1ccc(Oc2ccc(F)cc2)cc1)[C@@H]1C[C@@H](Cc2ccc(F)cc2)CN1C(=O)Cn1nccn1	µM	0.021
O=C(Cc1c[nH]cn1)N[C@@H](COCc1ccccc1)C(=O)Nc1ccc(Oc2ccc(F)cc2)cc1	µM	0.284
O=C(Nc1ccc(Oc2ccc(F)cc2)cc1)[C@@H]1C[C@@H](Cc2ccc(F)cc2)CN1C(=O)Cn1ccnn1	µM	0.026

====

tested system: Sphingosine 1-phosphate receptor 1 (Homo sapiens)
test description: Antagonist activity at S1P1 receptor expressed in HEK293 cells assessed as inhibition of S1P-induced tango beta-arrestin recruitment preincubated for 30 mins prior S1P addition measured after 16 to 18 hrs by luciferase reporter gene assay
Format: functional, cell-based
measurement kind: IC50 (nM)

compound	measurement units	experimental value
CN(CC(=O)NC(COCc1ccccc1)C(=O)Nc1ccc(Oc2ccccc2)cc1)C(=O)c1ccccc1 (racemic)	nM	2800
O=C(Nc1ccc(Oc2ccc(F)cc2)cc1)[C@@H]1C[C@@H](Cc2ccc(F)cc2)CN1C(=O)Cn1cncn1	nM	13
O=C(Nc1ccc(Oc2ccc(F)cc2)cc1)[C@@H]1C[C@@H](Cc2ccccc2)CN1C(=O)Cn1cncn1	nM	45

====

The following compounds have recorded IC50 on Cytochrome P450 3A4 (Homo sapiens, UniProt P08684).
Sequence (P08684 whole entry): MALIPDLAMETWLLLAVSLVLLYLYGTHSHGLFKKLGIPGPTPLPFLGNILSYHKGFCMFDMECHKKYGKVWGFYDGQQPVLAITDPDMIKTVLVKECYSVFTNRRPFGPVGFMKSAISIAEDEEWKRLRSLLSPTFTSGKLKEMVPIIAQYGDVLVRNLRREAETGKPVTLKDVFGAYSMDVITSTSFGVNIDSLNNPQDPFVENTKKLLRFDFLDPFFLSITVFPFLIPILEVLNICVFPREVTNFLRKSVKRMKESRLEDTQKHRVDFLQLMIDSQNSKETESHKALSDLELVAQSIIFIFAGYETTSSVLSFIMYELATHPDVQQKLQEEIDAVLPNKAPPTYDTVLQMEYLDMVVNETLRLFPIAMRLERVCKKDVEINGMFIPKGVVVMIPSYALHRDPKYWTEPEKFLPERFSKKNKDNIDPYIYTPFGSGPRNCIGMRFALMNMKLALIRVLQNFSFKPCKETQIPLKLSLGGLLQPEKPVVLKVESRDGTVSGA

smiles record	comparative sign	IC50 / µM
O=C(Nc1ccc(Oc2ccc(F)cc2)cc1)[C@@H]1C[C@@H](Cc2ccccc2)CN1C(=O)Cn1cncn1	>	20
O=C(Nc1ccc(Oc2ccc(F)cc2)cc1)[C@@H]1C[C@H](Cc2ccc(F)cc2)CN1C(=O)Cn1cncn1	>	20
O=C(Nc1ccc(Oc2ccc(F)cc2)cc1)[C@@H]1C[C@@H](Cc2ccc(F)cc2)CN1C(=O)Cn1ccnn1	>	20
O=C(Nc1ccc(Oc2ccc(F)cc2)cc1)[C@@H]1C[C@@H](Cc2ccccc2)CN1C(=O)Cc1cnc[nH]1	=	7.15
O=C(Nc1ccc(Oc2ccc(F)cc2)cc1)[C@@H]1C[C@@H](Cc2ccc(F)cc2)CN1C(=O)Cn1cncn1	=	12.6

Recorded values, source ChEMBL document CHEMBL2016445.
